experiment_notes: Mouse pharmacokinetics, i.v. and p.o.
Assay type: in vivo
run_parameters: plasma, iv, male C57BL/6 mice, i.v. 3 mg/kg
experimental_endpoint: Cmax at 4 h (ng/mL)
Your answer is read as ng/mL, so omit the unit and give the number.

CCOCc1cnc(O[C@H]2C[C@H]3CC[C@@H](C2)N3S(=O)(=O)c2c(C)n[nH]c2C)cn1
5240

// moving on: another record for Cmax at 4 h
Noted for `CCCCc1ccc(O[C@H]2C[C@H]3CC[C@@H](C2)N3S(=O)(=O)c2c(C)n[nH]c2C)cc1` : its Cmax at 4 h reads 702

====

experiment_notes: Mouse pharmacokinetics, i.v. and p.o.
Assay type: in vivo
run_parameters: plasma, oral, male C57BL/6 mice, p.o. 10 mg/kg vs i.v. 3 mg/kg, read-out: F (oral bioavailability)
experimental_endpoint: bioavailability

Noted for `CCOCc1cnc(O[C@H]2C[C@H]3CC[C@@H](C2)N3S(=O)(=O)c2c(C)n[nH]c2C)cn1` : its bioavailability reads ~60%

====

experiment_notes: Plasma stability assay, rat plasma
Format: in vitro ADME
run_parameters: n ≥ 3, read-out: plasma t1/2
experimental_endpoint: half-life at 2 μM

CCOCc1cnc(O[C@H]2C[C@H]3CC[C@@H](C2)N3S(=O)(=O)c2c(C)n[nH]c2C)cn1 [Compound 50]
> 120 min

// moving on: another record for half-life at 2 μM
Noted for CCCCc1ccc(O[C@H]2C[C@H]3CC[C@@H](C2)N3S(=O)(=O)c2c(C)n[nH]c2C)cc1 [Compound 39] : its half-life at 2 μM reads > 120 min

====

experiment_notes: Mouse pharmacokinetics, i.v. and p.o.
Format: in vivo
run_parameters: plasma, po, male C57BL/6 mice, p.o. 10 mg/kg
Experimental: Male C57BL/6 mice, weighing 22–24 g, were used (Charles River). […] Plasma samples were centrifuged at 21,100g for 15 min at 4 °C. […] The supernatants were further diluted (1:1) with H2O + 0.1% HCOOH, and analyzed by LC–MS/MS on a Waters ACQUITY UPLC-MS TQD system consisting of a Triple Quadrupole Detector (TQD) Mass Spectrometer equipped with an Electrospray Ionization interface and a Photodiode Array eλ Detector from Waters Inc. (Milford, MA, USA). […]
experimental_endpoint: Tmax at 8 h (min)
Your answer is read as min, so omit the unit and give the number.

CCCCc1ccc(O[C@H]2C[C@H]3CC[C@@H](C2)N3S(=O)(=O)c2c(C)n[nH]c2C)cc1
30

// moving on: another record for Tmax at 8 h
Noted for `CCOCc1cnc(O[C@H]2C[C@H]3CC[C@@H](C2)N3S(=O)(=O)c2c(C)n[nH]c2C)cn1` : its Tmax at 8 h reads 15

====

Each entry below carries its recorded solubility kinetic at 24 h.
experiment_notes: Aqueous kinetic solubility assay
Type: physicochemical
run_parameters: PBS buffer, pH 7.4, n = 3

CCCCc1ccc(O[C@H]2C[C@H]3CC[C@@H](C2)N3S(=O)(=O)c2c(C)n[nH]c2C)cc1 [Compound 39]
< 1 µM

// moving on: another record for solubility kinetic at 24 h
Noted for CCOCc1cnc(O[C@H]2C[C@H]3CC[C@@H](C2)N3S(=O)(=O)c2c(C)n[nH]c2C)cn1 [Compound 50] : its solubility kinetic at 24 h reads > 250 µM

====

Each entry below carries its recorded half-life at 2 μM.
experiment_notes: Plasma stability assay, mouse plasma
Type: in vitro ADME
run_parameters: n ≥ 3, read-out: plasma t1/2

CCOCc1cnc(O[C@H]2C[C@H]3CC[C@@H](C2)N3S(=O)(=O)c2c(C)n[nH]c2C)cn1
> 2 h

// moving on: another record for half-life at 2 μM
Noted for `CCCCc1ccc(O[C@H]2C[C@H]3CC[C@@H](C2)N3S(=O)(=O)c2c(C)n[nH]c2C)cc1` : its half-life at 2 μM reads > 2 h

====

experiment_notes: Liver microsomal stability assay (NADPH), mouse
Assay type: in vitro ADME
run_parameters: male, CD1, pH 7.5, mouse liver microsomes, read-out: LM_NADPH t1/2
experimental_endpoint: half-life at 4.6 μM

CCCCc1ccc(O[C@H]2C[C@H]3CC[C@@H](C2)N3S(=O)(=O)c2c(C)n[nH]c2C)cc1
> 1 h

// moving on: another record for half-life at 4.6 μM
Noted for `CCOCc1cnc(O[C@H]2C[C@H]3CC[C@@H](C2)N3S(=O)(=O)c2c(C)n[nH]c2C)cn1` : its half-life at 4.6 μM reads > 1 h

====

Each entry below carries its recorded clearance at 4 h.
experiment_notes: Mouse pharmacokinetics, i.v. and p.o.
Format: in vivo
run_parameters: plasma, iv, male C57BL/6 mice, i.v. 3 mg/kg
Your answer is read as mL/min/kg, so omit the unit and give the number.

CCOCc1cnc(O[C@H]2C[C@H]3CC[C@@H](C2)N3S(=O)(=O)c2c(C)n[nH]c2C)cn1
13

// moving on: another record for clearance at 4 h
Noted for `CCCCc1ccc(O[C@H]2C[C@H]3CC[C@@H](C2)N3S(=O)(=O)c2c(C)n[nH]c2C)cc1` : its clearance at 4 h reads 144

====

Each entry below carries its recorded Cmax at 8 h.
experiment_notes: Mouse pharmacokinetics, i.v. and p.o.
Assay type: in vivo
run_parameters: plasma, po, male C57BL/6 mice, p.o. 10 mg/kg
Your answer is read as ng/mL, so omit the unit and give the number.

CCOCc1cnc(O[C@H]2C[C@H]3CC[C@@H](C2)N3S(=O)(=O)c2c(C)n[nH]c2C)cn1 [Compound 50]
6870

Noted for CCCCc1ccc(O[C@H]2C[C@H]3CC[C@@H](C2)N3S(=O)(=O)c2c(C)n[nH]c2C)cc1 [Compound 39] : its Cmax at 8 h reads 297

====

experiment_notes: Mouse pharmacokinetics, i.v. and p.o.
Type: in vivo
run_parameters: plasma, iv, male C57BL/6 mice, i.v. 3 mg/kg
experimental_endpoint: Vd at 4 h

CCOCc1cnc(O[C@H]2C[C@H]3CC[C@@H](C2)N3S(=O)(=O)c2c(C)n[nH]c2C)cn1
0.53 L/kg

// moving on: another record for Vd at 4 h
Noted for `CCCCc1ccc(O[C@H]2C[C@H]3CC[C@@H](C2)N3S(=O)(=O)c2c(C)n[nH]c2C)cc1` : its Vd at 4 h reads 4.45 L/kg

====

target_or_system: h-NAAA (Homo sapiens, UniProt Q02083)
Construct: made in house; host or cells: HEK-293 cells stably overexpressing human NAAA; enzyme-enriched (lysosomal) lysate
Sequence (Q02083 29-125 limits assumed): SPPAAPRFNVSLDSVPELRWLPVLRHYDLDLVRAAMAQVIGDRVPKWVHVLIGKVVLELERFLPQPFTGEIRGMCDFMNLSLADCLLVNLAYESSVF
Sequence (Q02083 126-359 limits assumed): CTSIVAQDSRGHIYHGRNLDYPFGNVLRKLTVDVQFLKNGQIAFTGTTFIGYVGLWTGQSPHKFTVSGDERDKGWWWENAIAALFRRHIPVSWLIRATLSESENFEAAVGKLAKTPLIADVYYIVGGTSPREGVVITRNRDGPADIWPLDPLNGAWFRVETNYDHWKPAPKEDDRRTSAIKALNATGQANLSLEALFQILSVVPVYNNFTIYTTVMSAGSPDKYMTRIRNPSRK
experiment_notes: Fluorogenic human-NAAA assay (h-NAAA, fluo.)
Type: biochemical
run_parameters: Table S1; h-NAAA (fluo.)
Response key: T means pIC50 >= 7; F means pIC50 < 7.

Look over these answered cases.
CCCOc1ccc(O[C@H]2C[C@H]3CC[C@@H](C2)N3S(=O)(=O)c2c(C)n[nH]c2C)cc1 [Compound 47]
F
CCCCc1ccc(O[C@H]2C[C@H]3CC[C@@H](C2)N3S(=O)(=O)c2c(C)n[nH]c2C)cc1 [Compound 39]
T
Cc1n[nH]c(C)c1S(=O)(=O)N1CCC(Oc2cnccn2)CC1 [Compound 1]
F
CCOCc1ccc(O[C@H]2C[C@H]3CC[C@@H](C2)N3S(=O)(=O)c2c(C)n[nH]c2C)cc1 [Compound 48]
T

With those in mind, consider the next compound.
# bool: pIC50 of CCOCc1cnc(O[C@H]2C[C@H]3CC[C@@H](C2)N3S(=O)(=O)c2c(C)n[nH]c2C)cn1 [Compound 50] >= 7
T

====

experiment_notes: Mouse pharmacokinetics, i.v. and p.o.
Assay type: in vivo
run_parameters: plasma, iv, male C57BL/6 mice, i.v. 3 mg/kg
Procedure: Male C57BL/6 mice, weighing 22–24 g, were used (Charles River). […] Plasma samples were centrifuged at 21,100g for 15 min at 4 °C. […] The supernatants were further diluted (1:1) with H2O + 0.1% HCOOH, and analyzed by LC–MS/MS on a Waters ACQUITY UPLC-MS TQD system consisting of a Triple Quadrupole Detector (TQD) Mass Spectrometer equipped with an Electrospray Ionization interface and a Photodiode Array eλ Detector from Waters Inc. (Milford, MA, USA). […]
Each entry below carries its recorded Tmax at 4 h.
Your answer is read as min, so omit the unit and give the number.

CCOCc1cnc(O[C@H]2C[C@H]3CC[C@@H](C2)N3S(=O)(=O)c2c(C)n[nH]c2C)cn1
5

// moving on: another record for Tmax at 4 h
Noted for `CCCCc1ccc(O[C@H]2C[C@H]3CC[C@@H](C2)N3S(=O)(=O)c2c(C)n[nH]c2C)cc1` : its Tmax at 4 h reads 5

====

Each entry below carries its recorded pIC50.
target_or_system: h-NAAA (Homo sapiens, UniProt Q02083)
Construct: enzyme-enriched (lysosomal) lysate
experiment_notes: Fluorogenic human-NAAA assay (h-NAAA, fluo.)
run_parameters: h-NAAA (fluo.), mean ± SD (n ≥ 3); n.a.: not active @50 μM (<10% inhibition)
Please report pIC50 as the negative decimal logarithm of the molar concentration, giving only the number.

Below are worked cases with known answers.
Cc1n[nH]c(C)c1S(=O)(=O)N1CCC(Oc2cnccn2)CC1
5.96
Cc1n[nH]c(C)c1S(=O)(=O)N1[C@@H]2CC[C@H]1C[C@@H](Oc1ccc(F)cc1)C2
6.84
Cc1ccc(O[C@@H]2C[C@H]3CC[C@@H](C2)N3S(=O)(=O)c2c(C)n[nH]c2C)cc1
5.06

// moving on: another record for pIC50
Noted for `Cc1n[nH]c(C)c1S(=O)(=O)N1[C@@H]2CC[C@H]1C[C@@H](Oc1ccc(C#N)cc1)C2` : its pIC50 reads 6.12
